- protocol.details: Selectivity index, ratio of CC50 for human MT4 cells to EC50 for HIV1 cells
- Type: toxicity, cell-based
- condition.summary: read-out: Ratio CC50/EC50
quantity.measured: selectivity ratio

Past entries and their recorded results:
O=C1c2ccccc2C(=O)N1CCO/C(=N\c1cc(Cl)cc(Cl)c1)SS/C(=N/c1cc(Cl)cc(Cl)c1)OCCN1C(=O)c2ccccc2C1=O	< 1
O=C1c2ccccc2C(=O)N1CCO/C(=N\Cc1ccccc1)SS/C(=N/Cc1ccccc1)OCCN1C(=O)c2ccccc2C1=O	> 14
CC(=O)c1ccc(/N=C(\OCCN2C(=O)c3ccccc3C2=O)SS/C(=N/c2ccc(C(C)=O)cc2)OCCN2C(=O)c3ccccc3C2=O)cc1	> 4.2

--- query ---
## Input Which selectivity ratio value is on record for O=C1c2ccccc2C(=O)N1CCO/C(=N\c1cccc2ccccc12)SS/C(=N/c1cccc2ccccc12)OCCN1C(=O)c2ccccc2C1=O ?
## Output > 13

###

- System: Human immunodeficiency virus 1
- protocol.details: Antiviral activity against HIV1 in MT4 cells assessed as reduction of virus induced cytopathogenicity by MTT method
- Assay type: functional, organism-based
- condition.summary: Human immunodeficiency virus 1, MT4
quantity.measured: pEC50
Keep in mind that pEC50 stands for -log10 of concentration in molar terms.

Past entries and their recorded results:
O=C1c2ccccc2C(=O)N1CCO/C(=N\c1cccc([N+](=O)[O-])c1)SS/C(=N/c1cccc([N+](=O)[O-])c1)OCCN1C(=O)c2ccccc2C1=O	6.15
Cc1ccc2c(c1)C(=O)N(CCO/C(=N\c1ccc(Br)cc1)SS/C(=N/c1ccc(Br)cc1)OCCN1C(=O)c3ccc(C)cc3C1=O)C2=O	5.89
O=C1c2ccccc2C(=O)N1CCO/C(=N\Cc1ccccc1)SS/C(=N/Cc1ccccc1)OCCN1C(=O)c2ccccc2C1=O	5.15
O=C1c2ccccc2C(=O)N1CCO/C(=N\c1ccc(Cl)c([N+](=O)[O-])c1)SS/C(=N/c1ccc(Cl)c([N+](=O)[O-])c1)OCCN1C(=O)c2ccccc2C1=O	7.15
O=C1c2ccccc2C(=O)N1CCO/C(=N\c1ccc(Cl)cc1Cl)SS/C(=N/c1ccc(Cl)cc1Cl)OCCN1C(=O)c2ccccc2C1=O	5.40

## Input Enter reported pEC50 observed with Human immunodeficiency virus 1 for Cc1cc(C)cc(/N=C(\OCCN2C(=O)c3ccccc3C2=O)SS/C(=N/c2cc(C)cc(C)c2)OCCN2C(=O)c3ccccc3C2=O)c1
## Output 5.52

## Input Enter reported pEC50 observed with Human immunodeficiency virus 1 for CC(=O)c1ccc(/N=C(\OCCN2C(=O)c3ccccc3C2=O)SS/C(=N/c2ccc(C(C)=O)cc2)OCCN2C(=O)c3ccccc3C2=O)cc1
## Output 4.62

## Input Enter reported pEC50 observed with Human immunodeficiency virus 1 for O=C1c2ccccc2C(=O)N1CCO/C(=N\c1c(F)cc(F)cc1F)SS/C(=N/c1c(F)cc(F)cc1F)OCCN1C(=O)c2ccccc2C1=O
## Output 5.92

## Input Enter reported pEC50 observed with Human immunodeficiency virus 1 for O=C1c2ccccc2C(=O)N1CCO/C(=N\c1ccccc1)SS/C(=N/c1ccccc1)OCCN1C(=O)c2ccccc2C1=O
## Output 6.46

## Input Enter reported pEC50 observed with Human immunodeficiency virus 1 for O=C1c2ccccc2C(=O)N1CCO/C(=N\c1ccccc1F)SS/C(=N/c1ccccc1F)OCCN1C(=O)c2ccccc2C1=O
## Output 5.92

## Input Enter reported pEC50 observed with Human immunodeficiency virus 1 for c1ccc(CCO/C(=N\c2ccccc2)SS/C(=N/c2ccccc2)OCCc2ccccc2)cc1
## Output 4.96

## Input Enter reported pEC50 observed with Human immunodeficiency virus 1 for O=C1c2ccccc2C(=O)N1CCO/C(=N\c1ccc(Cl)c(Cl)c1)SS/C(=N/c1ccc(Cl)c(Cl)c1)OCCN1C(=O)c2ccccc2C1=O
## Output 5.15

###

- Tested on: Human immunodeficiency virus 1
- protocol.details: Antiviral activity against HIV1 in MT4 cells assessed as reduction of virus induced cytopathogenicity by MTT method
- Format: functional, organism-based
- condition.summary: Human immunodeficiency virus 1, MT4
Recorded measurements of EC50, one per entry
Express it in nM; write the number only.

Past entries and their recorded results:
O=C1c2ccccc2C(=O)N1CCO/C(=N\c1ccc(F)cc1)SS/C(=N/c1ccc(F)cc1)OCCN1C(=O)c2ccccc2C1=O	20
O=C1c2ccccc2C(=O)N1CCO/C(=N\c1cccc(C(F)(F)F)c1)SS/C(=N/c1cccc(C(F)(F)F)c1)OCCN1C(=O)c2ccccc2C1=O	2300
COc1ccc(/N=C(\OCCN2C(=O)c3ccccc3C2=O)SS/C(=N/c2ccc(OC)cc2)OCCN2C(=O)c3ccccc3C2=O)cc1	60
Cc1cc(Br)ccc1/N=C(\OCCN1C(=O)c2ccccc2C1=O)SS/C(=N/c1ccc(Br)cc1C)OCCN1C(=O)c2ccccc2C1=O	1800

--- query ---
## Input Which EC50 value is on record for O=C1c2ccccc2C(=O)N1CCO/C(=N\c1cc(F)ccc1F)SS/C(=N/c1cc(F)ccc1F)OCCN1C(=O)c2ccccc2C1=O ?
## Output 1300

###

- System: Human immunodeficiency virus 1
- protocol.details: Antiviral activity against HIV1 in MT4 cells assessed as reduction of virus induced cytopathogenicity by MTT method
- Assay type: functional, organism-based
- condition.summary: Human immunodeficiency virus 1, MT4
pEC50: −log10 of the molar value.
Recorded measurements of pEC50, one per entry

O=C1c2ccccc2C(=O)N1CCO/C(=N\c1cc(F)cc(F)c1)SS/C(=N/c1cc(F)cc(F)c1)OCCN1C(=O)c2ccccc2C1=O	< 4.43

## Input Which pEC50 value is on record for O=C1c2ccccc2C(=O)N1CCCO/C(=N\c1ccc(Br)cc1)SS/C(=N/c1ccc(Br)cc1)OCCCN1C(=O)c2ccccc2C1=O ?
## Output < 4.00

## Input Which pEC50 value is on record for Cc1cc(Br)cc(C)c1/N=C(\OCCN1C(=O)c2ccccc2C1=O)SS/C(=N/c1c(C)cc(Br)cc1C)OCCN1C(=O)c2ccccc2C1=O ?
## Output < 4.00

## Input Which pEC50 value is on record for O=C1c2ccccc2C(=O)N1CCO/C(=N\c1ccccc1Cl)SS/C(=N/c1ccccc1Cl)OCCN1C(=O)c2ccccc2C1=O ?
## Output < 5.05

## Input Which pEC50 value is on record for Cc1ccccc1/N=C(\OCCN1C(=O)c2ccccc2C1=O)SS/C(=N/c1ccccc1C)OCCN1C(=O)c2ccccc2C1=O ?
## Output < 4.96
